Below, each entry is listed with its recorded Dissolved amount.
- experimental-protocol: Dissolution test of poorly-soluble substances using 2nd fluid for disintegration test (pH 6.8) of the Japanese Pharmacopoeia
- Type: physicochemical
- condition: 2nd fluid for disintegration test; elution time 360 min
Give your result in µg/mL as a bare value.

// below: answered compounds
compound | recorded-metric | measurement
COc1ccc2c(c1)c(CC(=O)O)c(C)n2C(=O)c1ccc(Cl)cc1 [compound 20, Indomethacin] | Dissolved amount | 1114.4
CC(=O)Oc1ccccc1C(=O)O [Comparative Example 1-3, Aspirin] | Dissolved amount | 8552.7
CCn1cc(C(=O)O)c(=O)c2cc(F)c(N3CCNCC3)cc21 [compound 27, Norfloxacin] | Dissolved amount | 694.7

API: the following record is the query input.
### Prompt Entry under review: Cn1c(=O)c2[nH]cnc2n(C)c1=O [Comparative Example 15, Theophylline] . Reported Dissolved amount?
### Response 8906.2

###

- experimental-protocol: Dissolution test of poorly-soluble substances using 2nd fluid for disintegration test (pH 6.8) of the Japanese Pharmacopoeia
- Format: physicochemical
- condition: 2nd fluid for disintegration test; elution time 1 min
Tick met if Dissolved amount is 5 µg/mL or greater. Tick not met if Dissolved amount is less than 5 µg/mL.

Worked set:
molecule | class-name
CC(=O)O[C@]1(C(C)=O)CC[C@H]2[C@@H]3C=C(Cl)C4=CC(=O)CC[C@]4(C)[C@H]3CC[C@@]21C [Comparative Example 3-2, Chlormadinone acetate] | not met
O=C(Nc1ccc(Cl)cc1)Nc1ccc(Cl)c(Cl)c1 [10-1, Trichlorocarbanilide] | not met
CC(=O)Oc1ccccc1C(=O)O | met
CC(C)(Sc1cc(C(C)(C)C)c(O)c(C(C)(C)C)c1)Sc1cc(C(C)(C)C)c(O)c(C(C)(C)C)c1 | not met

### Prompt Given NC(N)=Nc1nc(CSCCC(N)=NS(N)(=O)=O)cs1 , state whether its Dissolved amount is at least 5 µg/mL.
### Response met

### Prompt Dear colleague, could you confirm whether Cn1c(=O)c2[nH]cnc2n(C)c1=O has Dissolved amount at or above 5 µg/mL?
### Response met

### Prompt Does CC1(C)[C@@H](O[C@H]2O[C@H](C(=O)O)[C@@H](O)[C@H](O)[C@H]2O[C@@H]2O[C@H](C(=O)O)[C@@H](O)[C@H](O)[C@H]2O)CC[C@]2(C)[C@H]3C(=O)C=C4[C@@H]5C[C@@](C)(C(=O)O)CC[C@]5(C)CC[C@@]4(C)[C@]3(C)CC[C@@H]12 [Comparative Example 16, Ammonium Glycyrrhizinate] have a reported Dissolved amount of at least 5 µg/mL?
### Response met

###

- experimental-protocol: Dissolution test of poorly-soluble substances using distilled water
- Type: physicochemical
- condition: water; elution time 30 min
Reported values of Dissolved amount for individual entries
Write down the numeric answer in µg/mL and omit the unit.

compound | unit-label | Dissolved amount
CC[C@H]1OC(=O)[C@H](C)[C@@H](O[C@H]2C[C@@](C)(OC)[C@@H](O)[C@H](C)O2)[C@H](C)[C@@H](O[C@@H]2O[C@H](C)C[C@H](N(C)C)[C@H]2O)[C@](C)(O)C[C@@H](C)C(=O)[C@H](C)[C@@H](O)[C@]1(C)O | µg/mL | 944.7
CC(=O)O[C@]1(C(C)=O)CC[C@H]2[C@@H]3C=C(Cl)C4=CC(=O)CC[C@]4(C)[C@H]3CC[C@@]21C [Comparative Example 3-2, Chlormadinone acetate] | µg/mL | 0.9
Cn1c(=O)c2[nH]cnc2n(C)c1=O | µg/mL | 8621.6

Proceed to the following item.
### Prompt Data request, read-out Dissolved amount, for CCS(=O)(=O)CCn1c([N+](=O)[O-])cnc1C
### Response 4558.1

###

- experimental-protocol: Dissolution test of poorly-soluble substances using 2nd fluid for disintegration test (pH 6.8) of the Japanese Pharmacopoeia
- Assay type: physicochemical
- condition: after dissolution test for 360 minutes; Second disintegration test medium (pH 6.8); 37±0.5° C.
// values below are reported Dissolved amount
Return type: number; implicit unit µg/mL.

### Prompt Data request, read-out Dissolved amount, for COc1cc(Cc2cnc(N)nc2N)cc(OC)c1OC
### Response 1321.9

### Prompt For the molecule shown here, CCC1(c2ccccc2)C(=O)NCNC1=O , give the reported Dissolved amount.
### Response 335.2

### Prompt # input molecule: COc1ccc2[nH]c([S+]([O-])Cc3ncc(C)c(OC)c3C)nc2c1 (stereo not shown) ; wanted: its Dissolved amount
### Response 169.9

### Prompt Which Dissolved amount value belongs to CC(=O)O[C@]1(C(C)=O)CC[C@H]2[C@@H]3C=C(Cl)C4=CC(=O)CC[C@]4(C)[C@H]3CC[C@@]21C [Comparative Example 3-2, Chlormadinone acetate] ?
### Response 2.8

###

- experimental-protocol: Dissolution test of poorly-soluble substances using distilled water
- Assay type: physicochemical
- condition: water; elution time 360 min
recorded-metric: Dissolved amount (µg/mL)
Number in µg/mL, nothing else.

Reference set (8 entries):
compound | recorded-metric | measurement
OCCN(CCO)c1nc(N2CCCCC2)c2nc(N(CCO)CCO)nc(N3CCCCC3)c2n1 | Dissolved amount | 8.2
CC(=O)O[C@]1(C(C)=O)CC[C@H]2[C@@H]3C=C(Cl)C4=CC(=O)CC[C@]4(C)[C@H]3CC[C@@]21C [Comparative Example 3-2, Chlormadinone acetate] | Dissolved amount | 1.2
Cn1c(=O)c2[nH]cnc2n(C)c1=O | Dissolved amount | 8691.5
O=C1NC(=O)C(c2ccccc2)(c2ccccc2)N1 | Dissolved amount | 24.1
CCS(=O)(=O)CCn1c([N+](=O)[O-])cnc1C | Dissolved amount | 6207.6
CC1(C)[C@@H](O[C@H]2O[C@H](C(=O)O)[C@@H](O)[C@H](O)[C@H]2O[C@@H]2O[C@H](C(=O)O)[C@@H](O)[C@H](O)[C@H]2O)CC[C@]2(C)[C@H]3C(=O)C=C4[C@@H]5C[C@@](C)(C(=O)O)CC[C@]5(C)CC[C@@]4(C)[C@]3(C)CC[C@@H]12 [Comparative Example 16, Ammonium Glycyrrhizinate] | Dissolved amount | 8948.1
CC[C@H]1OC(=O)[C@H](C)[C@@H](O[C@H]2C[C@@](C)(OC)[C@@H](O)[C@H](C)O2)[C@H](C)[C@@H](O[C@@H]2O[C@H](C)C[C@H](N(C)C)[C@H]2O)[C@](C)(O)C[C@@H](C)C(=O)[C@H](C)[C@@H](O)[C@]1(C)O | Dissolved amount | 846.1
NC(=O)N1c2ccccc2C=Cc2ccccc21 [compound 22, Carbamazepine] | Dissolved amount | 153.0

### Prompt Look up Dissolved amount: CC(=O)Oc1ccccc1C(=O)O
### Response 3110.4

### Prompt For CC(=O)SC[C@@H](C)C(=O)N1CCC[C@H]1C(=O)N[C@@H](Cc1ccccc1)C(=O)O , what is its reported Dissolved amount?
### Response 996.5

###

- experimental-protocol: Dissolution test of poorly-soluble substances using distilled water
- Type: physicochemical
- condition: water; elution time 180 min
recorded-metric: Dissolved amount (µg/mL)
Provide the reading as a plain figure in µg/mL.

molecule | Dissolved amount / µg/mL
NC(N)=Nc1nc(CSCCC(N)=NS(N)(=O)=O)cs1 | 1509.8
Cn1c(=O)c2[nH]cnc2n(C)c1=O | 8672.3

### Prompt # query: Dissolved amount of entry CC(=O)O[C@]1(C(C)=O)CC[C@H]2[C@@H]3C=C(Cl)C4=CC(=O)CC[C@]4(C)[C@H]3CC[C@@]21C [Comparative Example 3-2, Chlormadinone acetate]
### Response 1.1

###

- experimental-protocol: Dissolution test of poorly-soluble substances using 2nd fluid for disintegration test (pH 6.8) of the Japanese Pharmacopoeia
- Assay type: physicochemical
- condition: 2nd fluid for disintegration test; elution time 3 min
recorded-metric: Dissolved amount

Check out these entries, answers already filled in.
molecule | measurement
NC(N)=Nc1nc(CSCCC(N)=NS(N)(=O)=O)cs1 [Comparative Example 17, Famotidine] | 2286.6 µg/mL
CC(=O)Oc1ccccc1C(=O)O [Comparative Example 1-3, Aspirin] | 1020.4 µg/mL

### Prompt State the recorded Dissolved amount for this entry: O=C(Nc1ccc(Cl)cc1)Nc1ccc(Cl)c(Cl)c1 [10-1, Trichlorocarbanilide]
### Response 0.3 µg/mL

### Prompt Give the measured Dissolved amount of CCS(=O)(=O)CCn1c([N+](=O)[O-])cnc1C [compound 25, Tinidazole] .
### Response 4613.3 µg/mL

### Prompt Dear colleague, I am looking for the recorded Dissolved amount of the following molecule: CC(C)(Sc1cc(C(C)(C)C)c(O)c(C(C)(C)C)c1)Sc1cc(C(C)(C)C)c(O)c(C(C)(C)C)c1 [Comparative Example 5-3, Probucol]
### Response 14.9 µg/mL
